System: OVCAR-5 ovarian
Test: NCI tumour cell line growth inhibition, 48 h
QUANTITY: TGI (µM)
The response must be a number in µM with no trailing unit.

STRUCTURE	UNIT_LABEL	OBSERVED
CCOC(=O)C(=C=Cc1cccs1)C(=O)c1ccccc1	µM	28.5

**Query** Query (compound): c1ccc2c3c(c(N4CCNCC4)nc2c1)CCCC3 ; field requested: TGI
**Result** 26.9

---

System: HCT-15 colon
Assay: NCI tumour cell line growth inhibition, 48 h
GI50 listing for selected molecules.

MOLECULE	MEASUREMENT_TARGET	GI50
COc1cccc(-n2cnc3c(N/N=C/c4ccncc4)ncnc32)c1	HCT-15 colon	9830 nM

**Query** Would you kindly share the measured GI50 for C=CC[n+]1c(/C=C2\Sc3ccccc3N2C)sc(-c2ccccc2)c1-c1ccccc1 ?
**Result** 2180 nM

**Query** Thanks! And COC(=O)c1ccc2c(c1)[n+](=O)c(C(C)=O)c(C(F)(F)F)n2[O-] ?
**Result** 1830 nM

**Query** Try C=C1c2c(C)nn(-c3ccccc3)c2N(C)C23C[C@@H]1C1(C)c4c(C)nn(-c5ccccc5)c4N(C)C(C)(C[C@H]12)C3 (stereo partly specified) next.
**Result** 3670 nM

**Query** Same again, this time with CC(C)=CCNc1ncnc2c1ncn2C1OC(COP(=O)(O)O)C(O)C1O (stereo unspecified)
**Result** 2720 nM

**Query** Also check CCCCCc1c(C)[nH]c(/C=C2\N=C(c3ccc[nH]3)C=C2Oc2ccc(OC)cc2)c1C
**Result** 113 nM

---

Tested on: A549 NSCLC
Test: NCI tumour cell line growth inhibition, 48 h
QUANTITY: TGI

COMPOUND	OBSERVED
COc1ccc(C2CC(c3cccc(Nc4ccnc5cc(Cl)ccc45)c3)=NN2c2ccccc2)cc1 (stereo unspecified)	> 100 µM

**Query** Reported TGI, compound CC1=NN(C(=O)CC(=O)Nc2ccccc2)C(=O)C1N=Nc1ccc(S(N)(=O)=O)cc1 (stereo unspecified) : ____
**Result** > 100 µM

**Query** Now this one: CCCCOP(=O)(OCCCC)C(NS(=O)(=O)c1ccccc1)(C(=O)OCC)C(F)(F)F (stereo unspecified)
**Result** > 100 µM

**Query** Input Nc1nc(-c2ccccc2)cc(-c2ccc(F)cc2)c1-c1ccc(Cl)cc1
**Result** > 100 µM

**Query** Please answer likewise for CC(CC(C)[C@H]1CCC2[C@H]3C(CC[C@@]21C)[C@@]1(C)CCC(O)C[C@H]1C[C@@H]3O)C(=O)O (stereo partly specified)
**Result** > 100 µM

**Query** And CCOc1cccc2cccnc12 ?
**Result** > 100 µM

---

System: HCC-2998 colon
Test: NCI tumour cell line growth inhibition, 48 h
Where a SMILES comes first, the peptide text is derived from it. [ ]: non-standard residue; d: D form. The star is where a group is joined. ξ: configuration not given here. 4Abz = Nc1ccc(C(=O)O)cc1; ξL = CC(C)CC(N)C(=O)O; NHOH = ON*
QUANTITY: TGI

COMPOUND	OBSERVED
CCCCc1ccc(Nc2nc(N)c3[nH]cnc3n2)cc1	46.4 µM
Nc1nc(-c2ccccc2)cc(-c2ccc(F)cc2)c1-c1ccc(Cl)cc1	> 100 µM
CC(C)=CCNc1ncnc2c1ncn2C1OC(COP(=O)(O)O)C(O)C1O (centres undefined)	> 100 µM

**Query** Recorded TGI for CC(=O)Nc1ccc(S(=O)(=O)/N=c2/sc(S(N)(=O)=O)nn2C)cc1 , please?
**Result** > 100 µM

**Query** And then CCCCCCCCOCC(O)COC (centres undefined) , what is it?
**Result** > 100 µM

**Query** How about this compound: COc1cc(CNc2nc3cc(C(F)(F)F)ccc3nc2C(=O)O)cc(OC)c1OC
**Result** > 100 µM

**Query** Please answer likewise for O=C(CCCCCCCCC(=O)OCCCn1cc(C(=O)NC(=O)OCc2ccccc2)c(=O)[nH]c1=O)OCCCn1cc(C(=O)NC(=O)OCc2ccccc2)c(=O)[nH]c1=O
**Result** > 100 µM

**Query** Another compound to check: CC(C)CC(NC(=O)[C@@H]1CCCN1C(=O)CNC(=O)c1ccc(N)cc1)C(=O)N[C@H](C)C(=O)NO (some centres undefined) (H-[4Abz]GP[ξL][dA]-{NHOH})
**Result** > 100 µM

**Query** Request: NC(=O)NC1=NCCC(=O)N1CCc1c[nH]c2ccccc12
**Result** 44.4 µM

**Query** Item: Cc1cc(CC(O)(C(F)(F)F)C(F)(F)F)cc(CC(O)(C(F)(F)F)C(F)(F)F)n1
**Result** 14.2 µM
